B1: library; a variant is named by its letters at N, in order (parent)
chain: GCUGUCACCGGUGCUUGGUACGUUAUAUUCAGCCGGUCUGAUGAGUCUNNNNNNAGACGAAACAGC

Variants of: B1
Assay: normalized RNA/DNA level with ligand (relative to sTRSVctl = 100) (log10 (% of sTRSVctl)); HEK293T overexpressing SLC46A1; ligand concentration (+) RNA-Seq: 6 mM; higher = less ribozyme self-cleavage, higher mRNA level
Conditions: with (6R,S)-folinic acid; ligand present: yes
endpoint_label: normalized RNA/DNA level with ligand (log10)

chain: GCUGUCACCGGUGCUUGGUACGUUAUAUUCAGCCGGUCUGAUGAGUCUUUACUGAGACGAAACAGC [UUACUG]
observed_result: 2.01
--
chain: GCUGUCACCGGUGCUUGGUACGUUAUAUUCAGCCGGUCUGAUGAGUCUCAUCAGAGACGAAACAGC [CAUCAG]
observed_result: 1.97
--
chain: GCUGUCACCGGUGCUUGGUACGUUAUAUUCAGCCGGUCUGAUGAGUCUGUCGUCAGACGAAACAGC [GUCGUC]
observed_result: 2.02
--
chain: GCUGUCACCGGUGCUUGGUACGUUAUAUUCAGCCGGUCUGAUGAGUCUCGUGCAAGACGAAACAGC [CGUGCA]
observed_result: 2.03
--
chain: GCUGUCACCGGUGCUUGGUACGUUAUAUUCAGCCGGUCUGAUGAGUCUGACCGUAGACGAAACAGC [GACCGU]
observed_result: 2.01
--
chain: GCUGUCACCGGUGCUUGGUACGUUAUAUUCAGCCGGUCUGAUGAGUCUCACUCAAGACGAAACAGC [CACUCA]
observed_result: 2.03
--
chain: GCUGUCACCGGUGCUUGGUACGUUAUAUUCAGCCGGUCUGAUGAGUCUAAACCUAGACGAAACAGC [AAACCU]
observed_result: 2.03
--
chain: GCUGUCACCGGUGCUUGGUACGUUAUAUUCAGCCGGUCUGAUGAGUCUGGUGCGAGACGAAACAGC [GGUGCG]
observed_result: 2.05
--
chain: GCUGUCACCGGUGCUUGGUACGUUAUAUUCAGCCGGUCUGAUGAGUCUAAUUGCAGACGAAACAGC [AAUUGC]
observed_result: 2.01
--
chain: GCUGUCACCGGUGCUUGGUACGUUAUAUUCAGCCGGUCUGAUGAGUCUAAUAGUAGACGAAACAGC [AAUAGU]
observed_result: 1.98
--
chain: GCUGUCACCGGUGCUUGGUACGUUAUAUUCAGCCGGUCUGAUGAGUCUACAUUCAGACGAAACAGC [ACAUUC]
observed_result: 2.03
--
chain: GCUGUCACCGGUGCUUGGUACGUUAUAUUCAGCCGGUCUGAUGAGUCUACUGCCAGACGAAACAGC [ACUGCC]
observed_result: 2.06
--
chain: GCUGUCACCGGUGCUUGGUACGUUAUAUUCAGCCGGUCUGAUGAGUCUUAACUUAGACGAAACAGC [UAACUU]
observed_result: 2
--
chain: GCUGUCACCGGUGCUUGGUACGUUAUAUUCAGCCGGUCUGAUGAGUCUGCUUUGAGACGAAACAGC [GCUUUG]
observed_result: 2.02
--
chain: GCUGUCACCGGUGCUUGGUACGUUAUAUUCAGCCGGUCUGAUGAGUCUUUCUUCAGACGAAACAGC [UUCUUC]
observed_result: 2
--
chain: GCUGUCACCGGUGCUUGGUACGUUAUAUUCAGCCGGUCUGAUGAGUCUGAAUGCAGACGAAACAGC [GAAUGC]
observed_result: 2
--
chain: GCUGUCACCGGUGCUUGGUACGUUAUAUUCAGCCGGUCUGAUGAGUCUUGUGCGAGACGAAACAGC [UGUGCG]
observed_result: 1.96
--
chain: GCUGUCACCGGUGCUUGGUACGUUAUAUUCAGCCGGUCUGAUGAGUCUUCCUGCAGACGAAACAGC [UCCUGC]
observed_result: 2.08
--
chain: GCUGUCACCGGUGCUUGGUACGUUAUAUUCAGCCGGUCUGAUGAGUCUCCCUUGAGACGAAACAGC [CCCUUG]
observed_result: 2.09
--
chain: GCUGUCACCGGUGCUUGGUACGUUAUAUUCAGCCGGUCUGAUGAGUCUAGUUGUAGACGAAACAGC [AGUUGU]
observed_result: 2.04
